test: Tmax in Japanese chronic pain patient at 600 to 1000 mg, po administered as single dose by fluorescence polarization immunoassay; format: ADME, organism-based; settings: human, in vivo

[
  {
    "smiles_code": "CC(=O)Nc1ccc(O)cc1",
    "Tmax (min)": 30
  }
]

* * *

assay: Cmax in Japanese healthy volunteer (5 volunteers) at 1000 mg, po by HPLC method; format: ADME, organism-based; set-up: dose 1000 mg, route oral; settings: human, in vivo

[
  {
    "compound": "CC(=O)Nc1ccc(O)cc1 [ACETAMINOPHEN]",
    "Cmax, ng/mL": 17700
  }
]
